# Tested on: IGROV1 ovarian
# assay: NCI-60 one-dose screen, 48 h (100 = growth as untreated, 0 = no growth, -100 = all killed)
# assay-setup: 10 µM unless noted
# Experimental: Growth inhibition of the IGROV1 human tumor cell line is measured as a screen for anti-cancer activity. Cells are grown in 96 well plates and exposed to the test compound for 48 hours. Compounds are tested at a single concentration, which is 10^-5 M for most compounds. The reported endpoint is percent growth (GI% or GIPRCNT), where numbers from 0 - 100% represent growth inhibition, and numbers from -100% - 0 represent cell death. For example, a value of 40 represents 60% growth inhibition. […]
The panel holds about 83,000 compounds, 20% with a hit somewhere; the sample as a whole holds those more often.
What growth was measured for each of the following?
One number for each entry, in %.

Reference set, count: 8
>  <molecule>
N#Cc1c(-c2cccs2)cc(-c2cnccn2)nc1SCC(=O)N/N=C/c1cccs1

>  <measurement-target>
IGROV1 ovarian

>  <growth / %>
74.6

$$$$
>  <molecule>
COc1ccc2c(c1)c(-c1nnc(N)nc1-c1c[nH]c3ccc(F)cc13)cn2C

>  <measurement-target>
IGROV1 ovarian

>  <growth / %>
45.7

$$$$
>  <molecule>
CCOP(=O)(OCC)OC[C@]12CC[C@@H](C)[C@H](C)C1C1=CC[C@@H]3[C@@]4(C)CCCNC(C)(C)[C@@H]4CC[C@@]3(C)[C@]1(C)CC2 (stereo not given in full)

>  <measurement-target>
IGROV1 ovarian

>  <growth / %>
0.926

$$$$
>  <molecule>
Nc1nc(=O)n([C@H]2C[C@H](O)[C@@H](CO)O2)cc1C=O

>  <measurement-target>
IGROV1 ovarian

>  <growth / %>
106

$$$$
>  <molecule>
COC(=O)c1ccc(NC2=C(Cl)C(=O)C(C)=C(C)C2=O)cc1

>  <measurement-target>
IGROV1 ovarian

>  <growth / %>
70.4

$$$$
>  <molecule>
CCCCSC1=C(Cl)CN(c2ccccc2)C1=O

>  <measurement-target>
IGROV1 ovarian

>  <growth / %>
106

$$$$
>  <molecule>
Brc1cccc(-c2cc(-c3cnc4c(c3)OCCO4)n[nH]2)c1

>  <measurement-target>
IGROV1 ovarian

>  <growth / %>
45

$$$$
>  <molecule>
N#Cc1c(-c2ccc(F)cc2)cc(-c2c[nH]c3ccccc23)nc1-c1c[nH]c2ccccc12

>  <measurement-target>
IGROV1 ovarian

>  <growth / %>
102

$$$$

Would you mind giving growth for every molecule in the list below?
1. CC(Nc1ncnc2ccc(-c3cnc4cnccn34)cc12)c1ccccc1 (stereo not given)
2. CC(C)(C)Nc1nc2c(OCCc3ccccc3)cccn2c1-c1ccc([N+](=O)[O-])cc1
3. C#Cc1cc(OC)c(C(=O)Nc2ccc(F)cc2C(=O)Nc2cccc(S(=O)(=O)C(F)(F)F)c2)cn1
4. Cc1ccc(OCc2occc2C(=O)N2CCOCC2)cc1
5. CCOC(=O)C1=C(C)NC(C)=C(C(=O)OCc2ccccc2)C1c1cccc(C#N)c1 (stereo not given)
6. O=c1c2cc(-c3ccc(F)cc3F)ccc2n(O)c(=O)n1-c1cccc(C(F)(F)F)c1
7. Oc1ccc(-c2nc3ccc(/C(=N\N=C\c4ccc(Cl)cc4)c4ccccc4)cc3[nH]2)cc1
8. O=C(CCCCCCNC(=O)C(O)(O)C(F)(F)F)Nc1ccc(Br)cc1

Key:
[5.93, 56.9, -51, 104, 42.1, 21.2, 89.9, 15.7]

Would you mind giving growth for every molecule in the list below?
1. CC(C)NC(=O)c1cc(-c2ccc(NC(=O)Nc3ccc(F)cc3)cc2)nc2cccnc12
2. O=C(Nc1cc(C(F)(F)F)cc(C(F)(F)F)c1)Nc1ccc2oc(=O)ccc2c1
3. O=c1nc(Nc2ccc([N+](=O)[O-])cc2O)sc2ccccc12
4. O=C(Nc1ccc(Cl)c(C(F)(F)F)c1)Nc1ccc2oc(=O)ccc2c1

Key:
1. 110
2. 17.3
3. 33.2
4. 30.7
